assay: Biliary (hepatobiliary) excretion in rats after a 30-min infusion of Kang-Ai injection; format: in vivo, Sprague–Dawley rats; conditions: rat, in vivo, iv
Criterion: CLB (hepatobiliary clearance) strictly less than 3 mL/h. Met: y. Not met: n.

Below, 4 compounds whose answers are already recorded.
O=C1CCC[C@@H]2[C@H]3CCCN4CCC[C@@](O)(CN12)[C@@H]34	y
O=C1CCCC2=C3CCC[N+]4([O-])CCC[C@@H](CN12)[C@@H]34 (some centres unmarked) [Compound A7, Leontalbinine N-oxide]	y
CC(C)=CCC[C@](C)(O)[C@H]1CC[C@]2(C)[C@@H]1[C@H](O)C[C@@H]1[C@@]3(C)CC[C@H](O)C(C)(C)[C@@H]3[C@@H](O[C@@H]3O[C@H](CO)[C@@H](O)[C@H](O)[C@H]3O[C@@H]3OC[C@@H](O)[C@H](O)[C@H]3O)C[C@]12C [Compound C3, Notoginsenoside R2]	n
O=c1cccc([C@@H]2C[C@H](CO)[C@H]3CCCCN3C2)[nH]1	y

Here is the next item to consider.
I wonder whether O=C1C=CC[C@@H]2[C@H]3C[C@H](O)CN4CCC[C@@H](CN12)[C@@H]34 [Compound A6, 9α-hydroxysophocarpine] has CLB (hepatobiliary clearance) below 3 mL/h. Can you tell?
n
